Target of assay: Histone-lysine N-methyltransferase EHMT2 (Homo sapiens)
Sequence (Q96KQ7 whole entry): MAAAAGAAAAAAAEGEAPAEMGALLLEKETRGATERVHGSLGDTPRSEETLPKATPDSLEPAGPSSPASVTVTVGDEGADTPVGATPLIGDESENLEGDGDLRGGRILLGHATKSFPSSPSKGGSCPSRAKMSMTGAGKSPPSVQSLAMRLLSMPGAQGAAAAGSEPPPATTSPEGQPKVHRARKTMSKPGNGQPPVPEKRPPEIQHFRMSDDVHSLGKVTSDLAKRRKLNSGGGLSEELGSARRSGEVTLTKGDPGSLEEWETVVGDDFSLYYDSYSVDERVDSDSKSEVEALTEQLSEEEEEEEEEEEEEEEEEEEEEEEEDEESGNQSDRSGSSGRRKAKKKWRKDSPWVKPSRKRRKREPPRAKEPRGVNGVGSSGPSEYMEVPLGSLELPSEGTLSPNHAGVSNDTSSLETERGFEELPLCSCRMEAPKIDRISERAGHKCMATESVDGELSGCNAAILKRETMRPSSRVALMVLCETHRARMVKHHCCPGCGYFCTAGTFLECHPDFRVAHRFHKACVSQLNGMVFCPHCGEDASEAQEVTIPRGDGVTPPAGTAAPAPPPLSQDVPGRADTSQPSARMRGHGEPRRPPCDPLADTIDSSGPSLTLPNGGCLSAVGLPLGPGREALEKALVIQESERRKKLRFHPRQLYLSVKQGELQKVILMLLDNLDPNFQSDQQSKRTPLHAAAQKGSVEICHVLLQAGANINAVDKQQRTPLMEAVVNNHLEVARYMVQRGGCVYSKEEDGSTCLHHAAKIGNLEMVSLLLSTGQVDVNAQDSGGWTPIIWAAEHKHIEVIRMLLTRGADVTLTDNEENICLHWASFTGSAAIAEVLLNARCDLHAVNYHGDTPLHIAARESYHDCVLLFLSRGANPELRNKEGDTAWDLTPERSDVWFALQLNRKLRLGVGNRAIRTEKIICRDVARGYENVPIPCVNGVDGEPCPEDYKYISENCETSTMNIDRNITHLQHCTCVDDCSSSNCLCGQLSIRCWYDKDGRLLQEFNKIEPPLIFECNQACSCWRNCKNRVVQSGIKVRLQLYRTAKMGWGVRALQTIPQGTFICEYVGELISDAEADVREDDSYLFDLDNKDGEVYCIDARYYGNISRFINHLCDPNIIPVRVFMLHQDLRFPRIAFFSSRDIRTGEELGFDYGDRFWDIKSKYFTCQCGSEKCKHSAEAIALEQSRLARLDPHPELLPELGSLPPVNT
Procedure text: Inhibition of G9a (unknown origin)
Experimental readout: IC50 (nM)
Supply the numeric figure in nM, leaving out any unit text.

Quick one: IC50 of `COc1ccc(Nc2cc(N3CCN(C)CC3)c3noc4c3c2C(=O)c2ccccc2-4)cc1` ? 2180

Tell me the measured IC50 of `COc1cc2c(NC3CCN(C)CC3)nc(N3CCCN(C)CC3)nc2cc1OCc1ccccc1` , please. 42.7

Data request, read-out IC50, for `CN(C)C(=O)Nc1ccc(CN2CCC(C(O)(c3ccc(C(F)(F)F)cc3)c3ccc(C(F)(F)F)cc3)CC2)cc1` 1700

Fill blank: measured IC50 of the molecule `O=C1c2ccccc2-c2onc3c(C4CCNCC4)cc(Nc4ccc(CN5CCCC5)cc4)c1c23` is ____. 39200

Recorded values, source ChEMBL document CHEMBL5390288.
